Each entry below carries its recorded fold induction at 50 µM.
Tested on: E. faecium
Assay info: AK assay 384-well format, Prestwick library screening
Assay type: cell-based, Enterococcus faecium
Condition description: Enterococcus faecium, 3 h; planktonic E. faecium; 50 μM final drug concentration; 384-well; cutoff for positive-scoring molecules 3-fold increase; read-out: AK-based Prestwick Library Screening Results: E. faecium (increase in extracellular AK activity)
Structures can show the parent of a compound that is named as a salt.
Respond with the number and no other words.

Please review the following examples before continuing.
Input line: Lab request: please report fold induction at 50 µM under test system E. faecium for COc1ccc([C@@H]2Sc3ccccc3N(CCN(C)C)C(=O)[C@@H]2OC(C)=O)cc1 [Diltiazem hydrochloride]
Output line: 0.9

Input line: Lab request: please report fold induction at 50 µM under test system E. faecium for CN(C)[C@@H]1C(O)=C(C(N)=O)C(=O)[C@@]2(O)C(O)=C3C(=O)c4c(O)cccc4[C@@](C)(O)[C@H]3C[C@@H]12 [Tetracycline hydrochloride]
Output line: 1

Input line: Lab request: please report fold induction at 50 µM under test system E. faecium for CN(C)CCCOc1nn(Cc2ccccc2)c2ccccc12 [Benzydamine hydrochloride]
Output line: 1.1

Input line: Lab request: please report fold induction at 50 µM under test system E. faecium for O=C(Nc1ccccc1)OCC(CN1CCCCC1)OC(=O)Nc1ccccc1 (stereo not drawn) [Diperodon hydrochloride]
Output line: 1.1

Input line: Lab request: please report fold induction at 50 µM under test system E. faecium for O=c1[nH]cnc2c1ncn2[C@H]1CC[C@@H](CO)O1 [Didanosine]
Output line: 0.9

Further cases:
Input line: Lab request: please report fold induction at 50 µM under test system E. faecium for CN1CCN(C2=Nc3ccccc3Oc3ccc(Cl)cc32)CC1 [Loxapine succinate]
Output line: 0.9

Input line: Lab request: please report fold induction at 50 µM under test system E. faecium for COc1cc(C(=O)NCc2ccc(OCCN(C)C)cc2)cc(OC)c1OC [Trimethobenzamide hydrochloride]
Output line: 1.1

Input line: Lab request: please report fold induction at 50 µM under test system E. faecium for CN(C)[C@@H]1C(O)=C(C(N)=O)C(=O)[C@@]2(O)C(O)=C3C(=O)c4c(O)cccc4[C@@](C)(O)[C@H]3[C@H](O)[C@@H]12 [Oxytetracycline dihydrate]
Output line: 0.9

Input line: Lab request: please report fold induction at 50 µM under test system E. faecium for Cc1cccc(N(C)C(=S)Oc2ccc3ccccc3c2)c1 [Tolnaftate]
Output line: 1

Input line: Lab request: please report fold induction at 50 µM under test system E. faecium for CCCN1C[C@H](CSC)C[C@@H]2c3cccc4[nH]cc(c34)C[C@H]21 [Pergolide mesylate]
Output line: 1

Input line: Lab request: please report fold induction at 50 µM under test system E. faecium for `Cc1ccc(Cl)c(Nc2ccccc2C(=O)O)c1Cl`
Output line: 1.2

Input line: Lab request: please report fold induction at 50 µM under test system E. faecium for OCCN1CCN(CCCN2c3ccccc3Sc3ccc(C(F)(F)F)cc32)CC1 [Fluphenazine dihydrochloride]
Output line: 1.1
